From: paper PMC6978316

test: in vitro
run_parameters: mouse, serum, peptide remained intact in serum, mice serum, 37 °C, 2 h; RP-HPLC
Bridges are numbered along the chain shown (N, C = ends).

{"columns": ["substance", "remaining at 2 h"],
 "data": [
  ["H-RVQGRWKVRASFFKEAAAKEAAAKGFAWNVCVYRNGVRVCHRRAN-OH (disulfide 31-40) [A6]", "7%"]
]}
